- System: platelet aggregation induced by PAF
- ASSAY_PROTOCOL: Test 1: inhibition of platelet aggregation induced by PAF in vitro (rabbit platelet rich plasma, Born nephelometric technique)
- Format: cell-based, male New Zealand albino rabbits
- DETAILS: Oryctolagus cuniculus, Platelet, PAF C18 16 nM final, read-out: IC50 (concentration of the drug needed to inhibit the platelet aggregation in a 50%)
Lab note: anything with IC50 below 0.7 µM is marked T; values at 0.7 µM or higher are marked F.

These solved cases illustrate the format of a correct answer.
MOLECULE | ASSIGNED_CATEGORY
CCCCCCCCCCCCCCCCOCC1COC(COC(=O)N(Cc2cccc[n+]2CC)C(=O)OCC)C1 (racemic) | T
CCCCCCCCCCCCCCCNC(=O)OCC1COC(COC(=O)N(Cc2cccc[n+]2CC)C(C)=O)C1 (racemic) | T
CCCCCCCCCCCCCCCCOCC1COC(COC(=O)NCc2cccc[n+]2CC)C1 (racemic) | F

Ask: Bench note: check whether CCCCCCCCCCCCCCCCOCC1COC(COC(=O)CCCCC[n+]2ccsc2)C1 (racemic) shows IC50 below 0.7 µM
Result: F

Ask: Bench note: check whether CCCCCCCCCCCCCCC1COC(COCCCCCCC[n+]2ccsc2)C1 (racemic) shows IC50 below 0.7 µM
Result: F

Ask: Bench note: check whether CCCCCCCCCCCCCCC1COC(COCCCCCC[n+]2ccsc2)C1 (racemic) shows IC50 below 0.7 µM
Result: F

Ask: Bench note: check whether CCCCCCCCCCCCCCCCCCOCC1CC(COCCCCC[n+]2ccsc2)CO1 (racemic) shows IC50 below 0.7 µM
Result: F
